Just for reference, patent US8389557B2 is where these values come from.

- Measured on: Axl (Homo sapiens, UniProt P30530)
- Construct: endogenous in cells; host or cells: HeLa cells
- Assay: Phospho-Akt in-cell Western assay (inhibition of Axl activity)
- Type: cell-based
- Experimental setup: inhibition of Axl activity, phospho-Akt in-cell Western assay; Table 1
pIC50: −log10 of the molar value.
Measure: pIC50

* Cc1cccc(C(=O)n2nc(Nc3ccc(OCCN4CCCC4)cc3)nc2N)c1 | > 6.00
* Nc1nc(Nc2ccc(OCCN3CCCC3=O)cc2)nn1C(=O)c1cccc(N2CCOCC2)c1 | 5.00 to 6.00
* CC(C)Oc1ccc(C(=O)n2nc(Nc3ccccc3)nc2N)cc1 | 5.00 to 6.00
* CC(C)(C)c1ccc(C(=O)n2nc(Nc3ccc(OCCN4CCOCC4)cc3)nc2N)cc1 | > 6.00
* Nc1nc(Nc2ccccc2)nn1C(=O)c1cccc(N2CCOCC2)c1 | 4.70 to 5.00
* CNc1ccc(C(=O)n2nc(Nc3ccc(OCCN4CCCC4)cc3)nc2N)cc1 | > 6.00
* CN(C)c1cccc(C(=O)n2nc(Nc3ccc(OCCN4CCCCC4)cc3)nc2N)c1 | > 6.00
* CC(C)(C)c1ccc(C(=O)n2nc(Nc3ccc(OCCN4CCCCCC4)cc3)nc2N)cc1 | > 6.00
* CC(C)(C)Oc1ccc(C(=O)n2nc(Nc3ccc(OCCCN4CCCC4)cc3)nc2N)cc1 | > 6.00
* CN1CCN(c2ccc(Nc3nc(N)n(C(=O)c4cccc(N(C)C)c4)n3)cc2)CC1 | > 6.00
* CN(C)c1ccc(C(=O)n2nc(Nc3ccc(OCCCN4CCCC4)cc3)nc2N)cc1 | > 6.00
* COc1cc(OC)cc(C(=O)n2nc(Nc3ccc(OCCN4CCCC4)cc3)nc2N)c1 | > 6.00
* COc1cc(Nc2nc(N)n(C(=O)c3ccc(N4CCOCC4)cc3)n2)ccc1OCCN1CCCC1 | > 6.00
* CN(C)CCOc1ccc(Nc2nc(N)n(C(=O)c3ccc(N(C)C)cc3)n2)cc1 | > 6.00
* Nc1nc(Nc2ccc(OCCN3CCCCCC3)cc2)nn1C(=O)c1ccc(-c2csnn2)cc1 | > 6.00
* CN(C)c1cccc(C(=O)n2nc(Nc3ccc(OCCN4CCCC4)cc3)nc2N)c1 | < 4.70
* CC(C)(C)Oc1ccc(C(=O)n2nc(Nc3ccc(OCCN4CCOCC4)cc3)nc2N)cc1 | > 6.00
* CN(C)c1cccc(C(=O)n2nc(Nc3ccc(OCCCN4CCCC4)cc3)nc2N)c1 | > 6.00
* Nc1nc(Nc2ccc(OCCN3CCCC3)cc2)nn1C(=O)c1ccc(N2CCOCC2)cc1 | > 6.00
* CC(C)(C)Oc1ccc(C(=O)n2nc(Nc3ccc(OCCN4CCCC4)c(F)c3)nc2N)cc1 | > 6.00
* Nc1nc(Nc2ccc(OCCN3CCCC3)cc2)nn1C(=O)c1ccc(Oc2ccccc2)cc1 | > 6.00
* Nc1nc(Nc2ccc(OCCN3CCCC3)c(F)c2)nn1C(=O)c1ccccc1 | > 6.00
* CC(C)Oc1ccc(C(=O)n2nc(Nc3ccc(OCCN4CCCCCC4)cc3)nc2N)cc1 | > 6.00
* Nc1nc(Nc2ccc(OCCN3CCCC3)cc2)nn1C(=O)c1ccc(-c2ccccc2)cc1 | > 6.00
* COc1ccc(C(=O)n2nc(Nc3ccc(OCCN4CCCC4)cc3)nc2N)cc1F | > 6.00
* CSc1ccc(C(=O)n2nc(Nc3ccc(OCCN4CCCC4)cc3)nc2N)cc1 | > 6.00
* CC(C)(C)c1ccc(C(=O)n2nc(Nc3cccc(-c4cnco4)c3)nc2N)cc1 | 5.00 to 6.00
* CC(C)(C)Oc1ccc(C(=O)n2nc(Nc3cccc(-c4cnco4)c3)nc2N)cc1 | 5.00 to 6.00
* CC(C)Oc1ccc(C(=O)n2nc(Nc3ccc(OCCn4ccnc4)cc3)nc2N)cc1 | > 6.00
* COc1cc(Nc2nc(N)n(C(=O)c3cccc(N4CCOCC4)c3)n2)ccc1OCCN1CCCC1 | > 6.00
* Nc1nc(Nc2ccc(OCCN3CCCC3)cc2)nn1C(=O)c1ccc(OCCN2CCOCC2)cc1 | > 6.00
* CC(C)Oc1ccc(C(=O)n2nc(Nc3ccc(OCCN4CCCC4)cc3)nc2N)cc1 | > 6.00
* CC(C)(C)c1ccc(C(=O)n2nc(Nc3ccc(N4CCCC4)cc3)nc2N)cc1 | < 4.70

* * *

Each entry below carries its reported IC50.
- Measured on: Axl (Homo sapiens)
- Construct: endogenous in cells; host or cells: HeLa cells
- Sequence (P30530 26-894): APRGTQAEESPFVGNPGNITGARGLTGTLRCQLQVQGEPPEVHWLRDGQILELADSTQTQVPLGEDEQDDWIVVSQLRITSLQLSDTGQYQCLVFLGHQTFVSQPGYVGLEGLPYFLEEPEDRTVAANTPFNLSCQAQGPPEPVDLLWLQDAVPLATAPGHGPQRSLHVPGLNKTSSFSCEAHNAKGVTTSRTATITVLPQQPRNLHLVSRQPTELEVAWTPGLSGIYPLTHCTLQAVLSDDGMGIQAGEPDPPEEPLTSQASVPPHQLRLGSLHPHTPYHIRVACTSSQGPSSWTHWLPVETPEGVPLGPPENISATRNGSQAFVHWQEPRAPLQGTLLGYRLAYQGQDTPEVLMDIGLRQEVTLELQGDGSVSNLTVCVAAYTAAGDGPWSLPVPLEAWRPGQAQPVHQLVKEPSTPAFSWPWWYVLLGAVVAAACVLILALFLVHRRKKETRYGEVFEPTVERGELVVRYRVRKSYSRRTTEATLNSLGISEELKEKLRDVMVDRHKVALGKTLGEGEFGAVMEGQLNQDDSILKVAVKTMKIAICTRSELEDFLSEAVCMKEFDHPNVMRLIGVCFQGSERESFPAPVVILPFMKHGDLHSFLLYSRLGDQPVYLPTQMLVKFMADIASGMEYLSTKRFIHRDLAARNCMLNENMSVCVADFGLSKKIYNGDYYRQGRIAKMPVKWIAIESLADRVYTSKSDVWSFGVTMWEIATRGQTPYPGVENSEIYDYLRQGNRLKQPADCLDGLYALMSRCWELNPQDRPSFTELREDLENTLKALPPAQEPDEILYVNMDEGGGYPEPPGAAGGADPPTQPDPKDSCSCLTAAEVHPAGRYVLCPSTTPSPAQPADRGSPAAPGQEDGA
- Assay: Phospho-Akt in-cell Western assay (inhibition of Axl activity)
- Type: cell-based
- Experimental setup: Table 2; Hela cells, Axl antibody cross-linking stimulation, phospho-Akt chemiluminescence
Measure: IC50

* Cc1cccc(C(=O)n2nc(N)nc2Nc2cccc(OCC(=O)NC3CCCCC3)c2)c1 | > 20 µM
* Cc1ccc(C(=O)n2nc(N)nc2Nc2ccc(OC(C)C)cc2)cc1 | > 20 µM
* CC(C)(C)c1ccc(C(=O)n2nc(N)nc2Nc2ccc(OCCN3CCCC3)cc2)cc1 | 1 to 10 µM
* Nc1nc(Nc2ccc(OCCN3CCCC3)c(F)c2)n(C(=O)c2ccc(N3CCOCC3)cc2)n1 | 10 to 20 µM
* CC(C)(C)c1ccc(C(=O)n2nc(N)nc2Nc2ccc(N3CCCC3)cc2)cc1 | > 20 µM
* Cc1ccc(C(=O)n2nc(N)nc2Nc2ccc(N3CCCC3)cc2)cc1 | > 20 µM
* CSc1ccc(C(=O)n2nc(N)nc2Nc2ccc3c(c2)OCCO3)cc1 | > 20 µM
* CC(C)Oc1ccc(C(=O)n2nc(N)nc2Nc2ccc(N3CCOCC3)cc2)cc1 | > 20 µM
* CN1CCN(c2ccc(Nc3nc(N)nn3C(=O)c3cccc(N(C)C)c3)cc2)CC1 | 1 to 10 µM
* CN1CCN(c2ccc(Nc3nc(N)nn3C(=O)c3ccc(N(C)C)cc3)cc2)CC1 | 1 to 10 µM
* Nc1nc(Nc2ccc3c(c2)OCCO3)n(C(=O)c2cccc(OCc3ccccc3)c2)n1 | > 20 µM
* CC(C)(C)Oc1ccc(C(=O)n2nc(N)nc2Nc2ccc(N3CCCC3)cc2)cc1 | > 20 µM
* CC(C)c1ccc(C(=O)n2nc(N)nc2Nc2ccc3c(c2)OCCO3)cc1 | > 20 µM

* * *

compounds and their reported IC50
- Measured on: Axl (Homo sapiens)
- Construct: endogenous in cells; host or cells: HeLa cells
- Assay: Phospho-Akt in-cell Western assay (inhibition of Axl activity)
- Type: cell-based
- Experimental setup: Table 3; Hela cells, Axl antibody cross-linking stimulation, phospho-Akt chemiluminescence
Measure: IC50

• Nc1nc(Nc2ccc(OCCN3CCCC3)cc2)nn1C(=O)c1ccc2nn[nH]c2c1 = 10000 to 20000 nM
• Nc1nc(Nc2ccc(OCCN3CCOCC3)cc2)nn1C(=O)c1ccc2cc[nH]c2c1 = < 1000 nM
• CN(C)CCOc1ccc(Nc2nc(N)n(C(=O)c3ccc4c(c3)NC(=O)C(C)(C)O4)n2)cc1 = < 1000 nM
• CN1CCN(c2ccc(Nc3nc(N)n(C(=O)C4CC5CCC4C5)n3)cc2)CC1 (centres unmarked) = > 20000 nM
• Nc1nc(Nc2ccc(OCCN3CCCC3)cc2)nn1C(=O)c1ccc2nc[nH]c2c1 = 1000 to 10000 nM
• Cc1ccc(C(=O)n2nc(Nc3ccc(OCCN4CCCC4)cc3)nc2N)cn1 = 1000 to 10000 nM
• Nc1nc(Nc2ccc(OCCN3CCCC3)cc2)nn1C(=O)c1cc2ccccc2s1 = < 1000 nM
• Nc1nc(Nc2ccc(OCCN3CCCC3)cc2)nn1C(=O)c1ccc2[nH]ccc2c1 = < 1000 nM
• Nc1nc(Nc2ccc(OCCN3CCCC3)cc2)nn1C(=O)C1CC2C=CC1C2 (centres unmarked) = > 20000 nM
• Nc1nc(Nc2ccc(OCCN3CC[C@H](F)C3)cc2)nn1C(=O)c1ccc2cc[nH]c2c1 = < 1000 nM
• Nc1nc(Nc2ccc(OCCN3CCCC3)c(F)c2)nn1C(=O)c1ccc2cc[nH]c2c1 = < 1000 nM
• CC(C)Oc1ccc(Nc2nc(N)n(C(=O)c3ccc4c(c3)NC(=O)C(C)(C)O4)n2)cc1 = 1000 to 10000 nM
• Nc1nc(Nc2ccc(OCCN3CCCC3)cc2)nn1C(=O)c1c[nH]c2ccccc12 = 1000 to 10000 nM
• Nc1nc(Nc2ccc(OCCN3CCCC3)cc2)nn1C(=O)c1ccc2cc[nH]c2c1 = < 1000 nM
• Nc1nc(Nc2ccc(OCCN3CCCC3)cc2)nn1C(=O)c1ccc2sccc2c1 = < 1000 nM
• CC1(C)Oc2ccc(C(=O)n3nc(Nc4ccc(N5CCOCC5)cc4)nc3N)cc2NC1=O = 1000 to 10000 nM
• Nc1nc(Nc2ccc(OCCN3CCCC3)cc2)nn1C(=O)c1cc2ccccc2[nH]1 = < 1000 nM
• Nc1nc(Nc2ccc(OCCN3CCCC3)cc2)nn1C(=O)c1csnn1 = > 20000 nM
• Nc1nc(Nc2ccc(OCCn3ccnc3)cc2)nn1C(=O)c1cc2ccccc2s1 = < 1000 nM
• Cc1ccc(C(=O)n2nc(Nc3ccc(OCCN4CCCC4)cc3)nc2N)s1 = < 1000 nM
